- Test system: Haemophilus influenzae 76
- method: Agar dilution antibacterial test (MIC)
- Format: cell-based
- recorded.conditions: read-out: MIC
- Method: Fresh overnight cultures of test bacteria were diluted to approximately 1x(10)4 cells/microliter and applied in one microliter volumes to the surfaces of the agar plates. The innoculated plates were incubated overnight at 35° C. in ambient air. Minimum inhibitory concentration (mic) endpoints were recorded as the lowest antibiotic concentrations in micrograms per milliliter that inhibited the development of visible growth on the plates. […]
parameter.measured: MIC (µg/mL)
Give the quantity in µg/mL, number only.

Any idea what its MIC is? The molecule is N[C@@H](C(=O)N[C@@H]1C(=O)N2C(C(=O)O)=C(C(F)(F)F)CC[C@H]12)c1ccc(O)cc1
0.9

Any idea what its MIC is? The molecule is N[C@@H](C(=O)N[C@@H]1C(=O)N2C(C(=O)O)=C(C(F)(F)F)CC[C@H]12)c1cccc(Br)c1
1

Any idea what its MIC is? The molecule is N[C@@H](C(=O)N[C@@H]1C(=O)N2C(C(=O)O)=C(C(F)(F)F)CC[C@H]12)c1ccc(F)cc1
1

Any idea what its MIC is? The molecule is N[C@@H](C(=O)N[C@@H]1C(=O)N2C(C(=O)O)=C(C(F)(F)F)CC[C@H]12)c1ccccc1
1

Any idea what its MIC is? The molecule is N[C@@H](C(=O)N[C@@H]1C(=O)N2C(C(=O)O)=C(C(F)(F)F)CC[C@H]12)c1cccc(F)c1
2

----------
- System: Staphylococcus aureus V41
- method: Agar dilution antibacterial test (MIC)
- Format: cell-based
parameter.measured: MIC (µg/mL)
Give the quantity in µg/mL, number only.

Any idea what its MIC is? The molecule is NC(C(=O)N[C@@H]1C(=O)N2C(C(=O)O)=C(C(F)(F)F)CC[C@H]12)c1cccc(C(F)(F)F)c1 (stereo partly shown) [Compound 9]
4

Any idea what its MIC is? The molecule is Nc1nc(C(=NO)C(=O)N[C@@H]2C(=O)N3C(C(=O)O)=C(C(F)(F)F)CC[C@H]23)cs1 [Compound 5]
2

Any idea what its MIC is? The molecule is CCS(=O)(=O)Nc1cccc(C(N)C(=O)N[C@@H]2C(=O)N3C(C(=O)O)=C(C(F)(F)F)CC[C@H]23)c1 (stereo partly shown) [Compound 6]
8

Any idea what its MIC is? The molecule is CON=C(C(=O)N[C@@H]1C(=O)N2C(C(=O)O)=C(C(F)(F)F)CC[C@H]12)c1csc(N)n1 [Compound 4]
8

----------
- Tested on: Escherichia coli N10
- method: Agar dilution antibacterial test (MIC)
- Format: cell-based
parameter.measured: MIC (µg/mL)
Give the quantity in µg/mL, number only.

Any idea what its MIC is? The molecule is CCS(=O)(=O)Nc1cccc(C(N)C(=O)N[C@@H]2C(=O)N3C(C(=O)O)=C(C(F)(F)F)CC[C@H]23)c1 (stereo partly shown)
8

Any idea what its MIC is? The molecule is NC(C(=O)N[C@@H]1C(=O)N2C(C(=O)O)=C(C(F)(F)F)CC[C@H]12)c1cccc(C(F)(F)F)c1 (stereo partly shown)
32

----------
Give measured MIC for each item. Keep answers brief.
- System: Proteus incon PR33
- method: Agar dilution antibacterial test (MIC)
- Format: cell-based
- recorded.conditions: read-out: MIC
Give the quantity in µg/mL, number only.

Any idea what its MIC is? The compound is N[C@@H](C(=O)N[C@@H]1C(=O)N2C(C(=O)O)=C(C(F)(F)F)CC[C@H]12)c1ccc(F)cc1
8

Any idea what its MIC is? The compound is N[C@@H](C(=O)N[C@@H]1C(=O)N2C(C(=O)O)=C(C(F)(F)F)CC[C@H]12)c1cccc(F)c1
16

Any idea what its MIC is? The compound is N[C@@H](C(=O)N[C@@H]1C(=O)N2C(C(=O)O)=C(C(F)(F)F)CC[C@H]12)c1ccc(O)cc1
2.3

Any idea what its MIC is? The compound is N[C@@H](C(=O)N[C@@H]1C(=O)N2C(C(=O)O)=C(C(F)(F)F)CC[C@H]12)c1cccc(Br)c1
8

Any idea what its MIC is? The compound is N[C@@H](C(=O)N[C@@H]1C(=O)N2C(C(=O)O)=C(C(F)(F)F)CC[C@H]12)c1ccccc1
16

----------
Give measured MIC for each item. Keep answers brief.
- Tested on: Serratia SE3
- method: Agar dilution antibacterial test (MIC)
- Assay type: cell-based
- recorded.conditions: read-out: MIC
Give the quantity in µg/mL, number only.

Any idea what its MIC is? The molecule is N[C@@H](C(=O)N[C@@H]1C(=O)N2C(C(=O)O)=C(C(F)(F)F)CC[C@H]12)c1ccccc1
32

Any idea what its MIC is? The molecule is N[C@@H](C(=O)N[C@@H]1C(=O)N2C(C(=O)O)=C(C(F)(F)F)CC[C@H]12)c1cccc(F)c1
64

Any idea what its MIC is? The molecule is N[C@@H](C(=O)N[C@@H]1C(=O)N2C(C(=O)O)=C(C(F)(F)F)CC[C@H]12)c1ccc(F)cc1
32

Any idea what its MIC is? The molecule is N[C@@H](C(=O)N[C@@H]1C(=O)N2C(C(=O)O)=C(C(F)(F)F)CC[C@H]12)c1ccc(O)cc1
16

----------
Give measured MIC for each item. Keep answers brief.
- System: Citro CF17
- method: Agar dilution antibacterial test (MIC)
- Type: cell-based
Give the quantity in µg/mL, number only.

Any idea what its MIC is? The compound is CON=C(C(=O)N[C@@H]1C(=O)N2C(C(=O)O)=C(C(F)(F)F)CC[C@H]12)c1csc(N)n1
8

Any idea what its MIC is? The compound is CCS(=O)(=O)Nc1cccc(C(N)C(=O)N[C@@H]2C(=O)N3C(C(=O)O)=C(C(F)(F)F)CC[C@H]23)c1 (stereo partly shown)
32

Any idea what its MIC is? The compound is NC(C(=O)N[C@@H]1C(=O)N2C(C(=O)O)=C(C(F)(F)F)CC[C@H]12)c1cccc(C(F)(F)F)c1 (stereo partly shown)
128

Any idea what its MIC is? The compound is Nc1nc(C(=NO)C(=O)N[C@@H]2C(=O)N3C(C(=O)O)=C(C(F)(F)F)CC[C@H]23)cs1
16

----------
- System: Haemophilus influenzae C.L.
- method: Agar dilution antibacterial test (MIC)
- Format: cell-based
- recorded.conditions: read-out: MIC
Give measured MIC for each item. Keep answers brief.
Give the quantity in µg/mL, number only.

Any idea what its MIC is? The compound is N[C@@H](C(=O)N[C@@H]1C(=O)N2C(C(=O)O)=C(C(F)(F)F)CC[C@H]12)c1ccc(F)cc1 [Compound 3]
0.5

Any idea what its MIC is? The compound is N[C@@H](C(=O)N[C@@H]1C(=O)N2C(C(=O)O)=C(C(F)(F)F)CC[C@H]12)c1cccc(Br)c1 [Compound 7]
0.5

Any idea what its MIC is? The compound is N[C@@H](C(=O)N[C@@H]1C(=O)N2C(C(=O)O)=C(C(F)(F)F)CC[C@H]12)c1cccc(F)c1 [Compound 8]
2

Any idea what its MIC is? The compound is N[C@@H](C(=O)N[C@@H]1C(=O)N2C(C(=O)O)=C(C(F)(F)F)CC[C@H]12)c1ccc(O)cc1 [Compound 2]
0.7

Any idea what its MIC is? The compound is N[C@@H](C(=O)N[C@@H]1C(=O)N2C(C(=O)O)=C(C(F)(F)F)CC[C@H]12)c1ccccc1 [Compound 1]
0.5

----------
- Tested on: Serratia X99
- method: Agar dilution antibacterial test (MIC)
- Assay type: cell-based
parameter.measured: MIC (mg/L)
Give the quantity in mg/L, number only.

Any idea what its MIC is? The compound is CCS(=O)(=O)Nc1cccc(C(N)C(=O)N[C@@H]2C(=O)N3C(C(=O)O)=C(C(F)(F)F)CC[C@H]23)c1 (stereo partly shown)
64

Any idea what its MIC is? The compound is NC(C(=O)N[C@@H]1C(=O)N2C(C(=O)O)=C(C(F)(F)F)CC[C@H]12)c1cccc(C(F)(F)F)c1 (stereo partly shown)
128

----------
Give measured MIC for each item. Keep answers brief.
- Tested on: Klebsiella pneumoniae X68
- method: Agar dilution antibacterial test (MIC)
- Type: cell-based
- recorded.conditions: read-out: MIC
Give the quantity in µg/mL, number only.

Any idea what its MIC is? The compound is N[C@@H](C(=O)N[C@@H]1C(=O)N2C(C(=O)O)=C(C(F)(F)F)CC[C@H]12)c1cccc(F)c1
2

Any idea what its MIC is? The compound is N[C@@H](C(=O)N[C@@H]1C(=O)N2C(C(=O)O)=C(C(F)(F)F)CC[C@H]12)c1ccccc1
0.5

Any idea what its MIC is? The compound is N[C@@H](C(=O)N[C@@H]1C(=O)N2C(C(=O)O)=C(C(F)(F)F)CC[C@H]12)c1ccc(O)cc1
0.6

Any idea what its MIC is? The compound is N[C@@H](C(=O)N[C@@H]1C(=O)N2C(C(=O)O)=C(C(F)(F)F)CC[C@H]12)c1ccc(F)cc1
1

Any idea what its MIC is? The compound is N[C@@H](C(=O)N[C@@H]1C(=O)N2C(C(=O)O)=C(C(F)(F)F)CC[C@H]12)c1cccc(Br)c1
4
